// data source = patent US7709516B2

Target: Human Androgen Receptor (Homo sapiens)
Sequence (P10275 whole entry): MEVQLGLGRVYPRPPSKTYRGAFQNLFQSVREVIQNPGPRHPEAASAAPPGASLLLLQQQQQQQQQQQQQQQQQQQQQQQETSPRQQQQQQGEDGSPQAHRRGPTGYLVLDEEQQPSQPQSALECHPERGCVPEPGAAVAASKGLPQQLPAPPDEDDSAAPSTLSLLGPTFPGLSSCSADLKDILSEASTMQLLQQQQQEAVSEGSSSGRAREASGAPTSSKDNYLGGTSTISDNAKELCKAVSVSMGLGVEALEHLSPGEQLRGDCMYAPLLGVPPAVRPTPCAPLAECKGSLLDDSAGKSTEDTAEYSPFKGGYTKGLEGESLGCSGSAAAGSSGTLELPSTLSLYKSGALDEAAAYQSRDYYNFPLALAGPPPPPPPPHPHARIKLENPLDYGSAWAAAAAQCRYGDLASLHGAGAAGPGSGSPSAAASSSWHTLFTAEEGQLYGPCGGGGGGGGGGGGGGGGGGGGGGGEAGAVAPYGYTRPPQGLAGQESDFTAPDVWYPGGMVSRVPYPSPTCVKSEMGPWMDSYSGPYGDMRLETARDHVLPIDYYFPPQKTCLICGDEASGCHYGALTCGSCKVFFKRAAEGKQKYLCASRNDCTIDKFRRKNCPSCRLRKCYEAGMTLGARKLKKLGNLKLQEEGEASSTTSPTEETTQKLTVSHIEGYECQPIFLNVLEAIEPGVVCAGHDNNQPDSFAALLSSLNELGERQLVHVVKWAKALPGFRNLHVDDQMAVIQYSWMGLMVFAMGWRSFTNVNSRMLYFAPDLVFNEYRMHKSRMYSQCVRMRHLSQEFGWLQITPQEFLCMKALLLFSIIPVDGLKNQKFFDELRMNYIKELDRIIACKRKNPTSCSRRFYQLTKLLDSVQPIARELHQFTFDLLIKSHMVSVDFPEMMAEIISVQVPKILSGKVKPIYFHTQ
Assay: Androgen receptor binding assay ([3H]R1881, HAP) in cytosol of HEK-293 cells transfected with hAR
Conditions: Table 2; relative to R1881 = 100, transfected cells
Please assign Criterion not met whenever Human Androgen Receptor Binding (%) RBA R1881 = 100 is at or above 1%, and Criterion met whenever it is below.

• Cc1cc(CN2CCCC2)ccc1OCCC1(O)CCN(c2ccc(C#N)c(C(F)(F)F)c2)CC1 [EM-7657] = Criterion not met
• COC1(CCOc2ccc(CN3CCCC3)cc2C)CCN(c2ccc(C#N)c(C(F)(F)F)c2)CC1 [EM-8157] = Criterion met
• CC(C)NCc1ccc(OCCC2(O)CCN(c3ccc(C#N)c(C(F)(F)F)c3)CC2)cc1 [EM-7491] = Criterion met
• Cc1cc(CN2C[C@@H](C)O[C@@H](C)C2)ccc1OCCC1(O)CCN(c2ccc(C#N)c(C(F)(F)F)c2)CC1 [EM-7535] = Criterion not met
• CCC(c1ccc(OCCC2(O)CCN(c3ccc(C#N)c(C(F)(F)F)c3)CC2)c(C)c1)N1CCCC1 (centres unmarked) [EM-8003] = Criterion not met

Is Human Androgen Receptor Binding (%) RBA R1881 = 100 strictly under 1% for the entry Cc1cc(CN2CCOCC2)cc(C)c1OCCC1(O)CCN(c2ccc(C#N)c(C(F)(F)F)c2)CC1 [EM-7507] ?
Criterion met

Is Human Androgen Receptor Binding (%) RBA R1881 = 100 strictly under 1% for the entry N#Cc1ccc(N2CCC(O)(CCOc3ccc(CN4CCOCC4)cc3)CC2)cc1C(F)(F)F [EM-7439] ?
Criterion not met

Is Human Androgen Receptor Binding (%) RBA R1881 = 100 strictly under 1% for the entry Cc1cc(CN2[C@@H](C)CCC[C@@H]2C)ccc1OCCC1(O)CCN(c2ccc(C#N)c(C(F)(F)F)c2)CC1 [EM-7627] ?
Criterion not met

----------
Tested on: rat prostate, seminal vesicle, levator ani muscle
Experiment: Systemic antiandrogenic activity in orchidectomized immature male rats with DHT implant
Type: in vivo
Settings: Rattus norvegicus, 168 h, read-out: Lev Ani % inhibition, Table 1; rat +DHT, s.c. or p.o. (route not marked), levator ani, 0.5 mg/animal daily 7 days
Hi, to clarify the labels: 1 covers inhibition in vivo at 0.5 mg from 60% upward, 0 covers anything below 60%.

Recorded results for 5 compounds are shown here.
• CCC(=O)c1ccc(OCCCN2C(=S)N(c3ccc(C#N)c(C(F)(F)F)c3)C(=O)C2(C)C)cc1 = 0
• COC(=O)c1ccc(OCCCN2C(=S)N(c3ccc(C#N)c(C(F)(F)F)c3)C(=O)C2(C)C)cc1 = 0
• CCNCc1ccc(OCCCN2C(=S)N(c3ccc(C#N)c(C(F)(F)F)c3)C(=O)C2(C)C)cc1 = 1
• CC1(C)C(=O)N(c2ccc(C#N)c(Cl)c2)C(=S)N1CCCOc1ccc(CNC2CCCC2)cc1 = 0
• CC(C)NS(=O)(=O)c1ccc(OCCCN2C(=S)N(c3ccc(C#N)c(C(F)(F)F)c3)C(=O)C2(C)C)cc1 = 1

Turning now to a further compound:
Threshold query (inhibition in vivo at 0.5 mg >= 60%) on CCN(C)Cc1ccc(OCCCN2C(=S)N(c3ccc(C#N)c(C(F)(F)F)c3)C(=O)C2(C)C)cc1
0
